# target_entity: T1, Human ST2 (human, UniProt Q01638 19-328, limits assumed)
# T1 construct: also called human ST2 protein; Interleukin 1 receptor-like 1
# T1 sequence (looked up): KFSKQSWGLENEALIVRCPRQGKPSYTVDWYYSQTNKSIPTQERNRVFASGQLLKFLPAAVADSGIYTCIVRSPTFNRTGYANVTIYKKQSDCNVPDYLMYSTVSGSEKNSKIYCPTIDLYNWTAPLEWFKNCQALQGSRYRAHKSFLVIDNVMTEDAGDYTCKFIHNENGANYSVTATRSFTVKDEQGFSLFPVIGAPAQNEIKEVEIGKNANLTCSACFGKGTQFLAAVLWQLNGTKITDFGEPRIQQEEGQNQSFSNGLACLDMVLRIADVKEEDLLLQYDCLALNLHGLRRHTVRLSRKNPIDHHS
# procedure_summary: SPR (Carterra), antibody immobilized, ST2 analyte, 1:1
outcome_measure: koff (s⁻¹)
Provide only the numeric value, understood in s⁻¹.

Exercise: Recorded koff of Human ST2 IgG1 Antibody 101 (antibody, V domains shown, IgG1, kappa; also called ST2 Antibody 101) VH: QVQLVQSGAEVKKPGASVKVSCKASGYTFSTYDINWVRQAPGQGLEWVGIISPSGGWTTYAQKFQGRVTMTRDTSTSTVYMELSSLRSEDTAVYYCARVNYDILTGQGRGYYFDYWGQGTLVTVSS VL: DIQMTQSPSSLSASVGDRVTITCQATQDIADYLNWYQQKPGKAPKLLIYKASSLESGVPSRFSGSGSGTDFTLTISSLQPEDFATYYCQQSYSTPTFGPGTKVDIKR , please.
Key: 0.11

Exercise: Thanks! And Human ST2 IgG1 Antibody 107 (antibody, V domains shown, IgG1, kappa) VH: QVQLVQSGAQVKKPGASVKVSCKASGGTFSSYTISWVRQAPGQGLEWMGVIYPSGDITVYAQEFQGRVTMTRDTSTSTVYMELSSLRSEDTAVYYCARAWARYFDYWGQGTLVTVSS VL: DIQMTQSPSSLSASVGDRVTITCQASQDISNYLNWYQQKPGKAPKLLIYDASNLQAGVPSRFSGSGSGTDFTLTISSLQPEDFATYYCQQSYSSPITFGQGTRLEIKR ?
Key: 0.062

Exercise: Thanks! And Human ST2 IgG1 Antibody 106 (antibody, V domains shown, IgG1, kappa) VH: QVQLVQSGAEVKKPGSSVKVSCKASGYTFTDYYIHWVRQAPGQGLEWMGGIIPIYGTANYAQKFQGRVTITADESTSTAYMELSSLRSEDTAVYYCARTNWGMDVWGQGTTVTVSS VL: EIVMTQSPATLSVSPGERATLSCRASQGIPSNSLAWYQQKPGQAPRLLIYGTSARASGIPARFSGSGSGTEFTLTISSLQSEDFAVYYCQQYYSTPWTFGQGTKVEIKR ?
Key: 0.15

Exercise: Thanks! And Human ST2 IgG1 Antibody 104 (antibody, V domains shown, IgG1, kappa) VH: QVQLVQSGAEVKKPGSSVKVSCKASGYTFTNYAIIWVRQAPGQGLEWMGGIIPVFGTADYTQTFQGRVTITADESTSTAYMELSSLRSEDTAVYYCARVSTNYYDSSGYYAFDYWGQGTLVTVSS VL: DIQMTQSPSSLSASVGDRVTITCRASQSISSYLNWYQQKPGKAPKLLIYDASSLQSGVPSRFSGSGSGTDFTLTISSLQPEDFATYYCQQTYHTPWTFGQGTKVEIKR ?
Key: 0.061

Values from patent US20210403579A1
